# tested.on: T1, ZIKV (prM80E) with a C-terminal myc-myc-hexahistidine tag (Zika virus, UniProt A0A024B7W1 104-694)
# T1 construct: also called ZIKV (prM80E)-mmH; ZIKV-mmH
# test.name: SPR, mAb captured, 25C
Provide the reported t½ of each item.
Give bare numbers, in min.

In the examples that follow, each entry is paired with its recorded t½.
{"binder": "H4H25630P (antibody, V domains shown) VH: QVQLVQSGAEVKRPGASVKVSCKASDYTFTDYGISWVRQAPGQGLEWMGWFNTYNGNTNYAQKFQGRITMTTDTSTSTAYMELRSLRSDDTAIYYCARDWGLHYFENWGQGTLVTVSS VL: EIVLTQSPGTLSLSPGERATLSCRASQSVRNSYLAWYQQKPGQAPRLLIYGASSRDTGIPDRFSGSGSGTDFTLTISRLEPEDFAVYYCQQYGRSPWTFGQGTKVEIK", "t½ (min)": 33}
{"binder": "H4H25598P (antibody, V domains shown) VH: EVQLVESGGGLVQPGGSLRLSCAASGFTVSSNYMSWVRQAPGSGLEWVSVIYSGGITHYIGSVKGRFTISRHNSKNTLYLQMNSLRAEDTAMYYCARERYSGITGNPYGFDFWGQGTMVTVSS VL: DIQLTQSPSFLSASVGDRVTITCWASQDISSYLAWYQQKPGIAPKLLIYSASTLQSGVPSSFSGSGSGTEFTLTISSLQPEDFATYYCQQLNIYPFTFGPGTKVDIK", "t½ (min)": 257}
{"binder": "H4H25704N (antibody, V domains shown) VH: QVQLVESGGGVVQSGRSLRLSCAASGFTFIYYGMHWVRQAPGKGLEWVAVISYDGSDRYYADSVKGRFTISRDDSKNTLYLQMNSLRPEDTAVYYCAKDRGGRFDYWGQGTLVTVSS VL: EIVLTQSPGTLSLSPGERATLSCRASQSVNNNYLAWYQQKPGQAPRLLIYGASSRATGIPDRFGGGGSGTDFTLTISRLEPEDFAVYYCQRYGNSPLTFGGGTKVEIK", "t½ (min)": 32.2}
{"binder": "H4H25710N (antibody, V domains shown) VH: EVQLLESGGGLVQPGGSLRLSCAASGFTVSNNYMSWVRQAPGKGLEWVSVIYSGGRTNYGDSVKGRFTISRDNSKNTLYLQMNSLRAEDTAVYYCARENYDFWSGDPYGWDVWGQGTTVTVSS VL: DIQMTQSPSSLSASVGDRVTITCRASQDISNYLAWFQQKPGKAPKSLIYGASSLQRGVPSKFRGSGSGTDFTLTISSLQPEDFASYYCQQYNSYPYTFGQGTKLEIK", "t½ (min)": 5.5}
{"binder": "H4H25587P (antibody, V domains shown) VH: EVQLVESGGGLVQPGRSLTLSCAASGFTFDDYVMHWVRQAPGKGLEWVSGISWNSDTIDYADSVKGRFTISRDNAKNSLYLQMNSLRAEDTALYYCAKDRRSWYGGYFDYWGQGTLVTVSS VL: DIQMTQSPSSLSASVGDRVTITCRASQGISSYLAWYQQKPGKVPKLLIYAASTLQSGVPSRFSGSGSGTDFSLTISSLQPEDVATYYCQKYNSAPLTFGGGTKVEIK", "t½ (min)": 2.7}

// for each binder in input: emit t½
1. H4H25617P (antibody, V domains shown) VH: EVQLVESGGGLVQPGGSLRLSCSASGFTFTTYAMSWVRQAPGRGLEWVSSISGTGVSTYYADSVKGRFTISRDNSKNALYLQMNSLTAEDTAVYYCAKDSGTYHWGQGTLVTVSS VL: EIVLTQSPATLSLSPGERATLSCRASQSVDSYLAWYQQKPGQAPRLLIYDASNRATGIPARFSGSGSGTDFTLTISSLESEDFAVYYCQQRRNWPQFTFGGGTKVEIK
2. H4H25602P (antibody, V domains shown) VH: EVQLVESGGGLVQPGGSLRLSCAASGFTVSSNYMSWVRQAPGSGLEWVSVIYSGGITHYVDSVKGRFTISRHNSKNTLYLQMNSLRAEDTAMYYCARERYSGITGNPYGFDIWGQGTMVTVSS VL: DIQLTQSPSFLSASVGDRVTITCWASQDISSYLAWYQQKPGIAPKLLIYAASTLQSGVPSRFSGSGSGTEFTLTISSLQPEDFATYYCQQLNIYPFTFGPGTKVDIK

**A:**
1: 5.9; 2: 592

Where these numbers come from: patent US20180016324A1
